Test system: Plasmodium falciparum
Experiment: GSK_TCMDC: Inhibition of Plasmodium falciparum 3D7 in whole red blood cells, using parasite LDH activity as an index of growth. Test compounds present at 2uM
Type: functional

molecule: CCc1ccnc2c(N3CCCC3=O)cc(C(=O)N[C@@H](Cc3ccccc3)[C@H](O)CNC3CCOCC3)cc12.O=CO
unit.string: %
Inhibition: 99
--
molecule: COc1cc(NCC(C)CNCc2cn(Cc3ccccc3)c3ccccc23)nc2ccccc12 (stereo not drawn)
unit.string: %
Inhibition: 90
--
molecule: O=C(O)C(F)(F)F.OCCN1CCN(Cc2ccc(-c3cccc(-c4nc5cc(C(F)(F)F)ccc5[nH]4)c3)cc2)CC1
unit.string: %
Inhibition: 99
--
molecule: CCCc1cc(C(=O)N[C@@H](Cc2ccccc2)[C@H](O)CNC(C)(C)c2cccc(OC)c2)c(F)c(N2CCCC2=O)c1.O=CO
unit.string: %
Inhibition: 98
--
molecule: O=C(Nc1ccc(-c2cccc(-c3nc4cc(F)ccc4[nH]3)c2)cc1)Nc1ccsc1
unit.string: %
Inhibition: 100
--
molecule: O=C(Nc1ccncc1)c1cc(C(=O)Nc2ccncc2)cc([N+](=O)[O-])c1
unit.string: %
Inhibition: 100
--
molecule: CC(C)[C@H](NC(=O)c1ccc(O)c(-c2ccc(Cl)c(Cl)c2)c1)C(=O)NC1CCCCCC1
unit.string: %
Inhibition: 99
--
molecule: O=C(Nc1ccc(OC2CCN(Cc3ccsc3)C2)c(Cl)c1)c1ccc2ncccc2c1.O=C(O)C(F)(F)F (stereo not drawn)
unit.string: %
Inhibition: 88

Values were extracted from ChEMBL document CHEMBL1157539.
